Tested on: biotinyl-Trp-oxazolone
Test: self-aminoacylation, catalytic enhancement (BWO) (fold over background); higher = more active; k-Seq, kA / k0A0; sequences stand for … in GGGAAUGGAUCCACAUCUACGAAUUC…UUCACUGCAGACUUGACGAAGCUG
Variants at the floor of the assay were thinned out.
Measured Quantity: self-aminoacylation

In [3]: df
Out[3]:
                           monomer_sequence  meas_value
0  AUUACCCCGGUCAGCGAGUGA [Fam2.1 aminoacylation ribozyme variant]        5.45
1  AUUCAGCUAGGUCAUCGGGUA [Fam2.2 aminoacylation ribozyme variant]        2.76
2  AAUUUUGCUAAUAGUCGCAAA [Fam3.1 aminoacylation ribozyme variant]        2.42
3  AUUACCCUGAUCAUCUAGUGA [Fam2.1 aminoacylation ribozyme variant]        15.6
4  CCACAUUUCAAGCAAUCGGUU [Fam1B.1 aminoacylation ribozyme variant]         1.2
5  CCACACAUCAAGCAAUCGGUG [Fam1B.1 aminoacylation ribozyme variant]        5.14
6  AUUCACCUACGUCAUCGGGCG [Fam2.2 aminoacylation ribozyme variant]        2.75
7  CUUCACCUAGGUCAUCGGGUC [Fam2.2 aminoacylation ribozyme variant]        2.29
8  AGUCACCUCGGUCAUCGGGUG [Fam2.2 aminoacylation ribozyme variant]        7.18
9  CUUCUUCAAACAAGCGGUCUG [Fam1A.1 aminoacylation ribozyme variant]       0.713

---

Tested on: biotinyl-Met-oxazolone
Experiment: self-aminoacylation, catalytic enhancement (BMO) (fold over background); higher = more active; k-Seq, kA / k0A0; sequences stand for … in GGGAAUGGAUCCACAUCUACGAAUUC…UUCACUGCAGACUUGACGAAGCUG
Variants at the floor of the assay were thinned out.
self-aminoacylation by entry:
Measured Quantity: self-aminoacylation

>>> print(df.to_string())
                            monomer_sequence         subject_of_test  meas_value
 0  AAAUUUGCUUAUAGUCGCAAG [Fam3.1 aminoacylation ribozyme variant]  biotinyl-Met-oxazolone        1.91
 1  AAGUUUGCUAAUAAUCGCAAG [Fam3.1 aminoacylation ribozyme variant]  biotinyl-Met-oxazolone       0.637
 2  CCACACUUCAUGGAAUCGGUC [Fam1B.1 aminoacylation ribozyme variant]  biotinyl-Met-oxazolone       0.836
 3  CUACUACAAACCAUCGGUCUG [Fam1A.1 aminoacylation ribozyme variant]  biotinyl-Met-oxazolone       0.845
 4  CCUCACUUCAGGCAAUCGGUC [Fam1B.1 aminoacylation ribozyme variant]  biotinyl-Met-oxazolone       0.951
 5  CUACUUCAAACAAUCUGGCUG [Fam1A.1 aminoacylation ribozyme variant]  biotinyl-Met-oxazolone       0.844
 6  CCACAUUUCUAGCAAUCGGUC [Fam1B.1 aminoacylation ribozyme variant]  biotinyl-Met-oxazolone        1.35
 7  AUUACCCCGGUCAUCGAGAGA [Fam2.1 aminoacylation ribozyme variant]  biotinyl-Met-oxazolone         0.8
 8  CUUCUGCAAACAAUCGGUCUG [Fam1A.1 aminoacylation ribozyme variant]  biotinyl-Met-oxazolone        0.85
 9  AUUCAACUAGGUGAUCGGGUG [Fam2.2 aminoacylation ribozyme variant]  biotinyl-Met-oxazolone        3.11
10  AUCCACCUAGGUCAUCGGGUA [Fam2.2 aminoacylation ribozyme variant]  biotinyl-Met-oxazolone        39.4
11  CCACACUUCUAGCAAUCGGUC [Fam1B.1 aminoacylation ribozyme variant]  biotinyl-Met-oxazolone       0.611
12  AUUCACCUCGGUCAUCGGGGG [Fam2.2 aminoacylation ribozyme variant]  biotinyl-Met-oxazolone        3.13
13  CUUCUUCAAGCAAUCGGUCUG [Fam1A.1 aminoacylation ribozyme variant]  biotinyl-Met-oxazolone       0.909
14  CUACUUCAGACACUCGGUCUG [Fam1A.1 aminoacylation ribozyme variant]  biotinyl-Met-oxazolone        1.49
15  CAACUUCAUACAAUCGGUCUG [Fam1A.1 aminoacylation ribozyme variant]  biotinyl-Met-oxazolone       0.861
16  AUUCACCUAGGUCAGCGGGCG [Fam2.2 aminoacylation ribozyme variant]  biotinyl-Met-oxazolone        5.27
